Where do these numbers come from? They come from the array DNA melting data of Ke et al..

- ASSAY: melting temperature; melt of duplexes
- ASSAY CONTEXT: sodium 0.0675 M; strand 1 µM
READOUT KIND: Tm (°C)

substance="CGACGTGCAGCATGTGCTG+CAGCACATGCTGCACGTCG (((((((((((((((((((+)))))))))))))))))))" recorded_number=66.1
substance="CGACGTGCCTAATGTGCTG+CAGCACATCCTGCACGTCG ((((((((...((((((((+))))))))...))))))))" recorded_number=47.9
substance="CGACGTGCAATATGTGCTG+CAGCACATCTTGCACGTCG ((((((((((.((((((((+)))))))).))))))))))" recorded_number=54.8
substance="CGACGTGCAACATGTGCTG+CAGCACATCTAGCACGTCG ((((((((.(.((((((((+)))))))).).))))))))" recorded_number=48.2

* * *

Entries and their measured Tm follow.
- ASSAY: melting temperature; melt of duplexes
- ASSAY CONTEXT: sodium 0.0675 M; strand 1 µM
READOUT KIND: Tm

substance="CGACGTGCAAGATGTGCTG+CAGCACATCCTGCACGTCG (((((((((.(((((((((+))))))))).)))))))))" result="56.5 °C"
substance="CGACGTGCACCATGTGCTG+CAGCACATCAAGCACGTCG ((((((((...((((((((+))))))))...))))))))" result="42.8 °C"
substance="CGACGTGCTATATGTGCTG+CAGCACATAACGCACGTCG ((((((((..(((((((((+)))))))))..))))))))" result="50.8 °C"
substance="CGACGTGCTATATGTGCTG+CAGCACATTCTGCACGTCG ((((((((...((((((((+))))))))...))))))))" result="49 °C"
substance="CGACGTGCTTCATGTGCTG+CAGCACATGTAGCACGTCG (((((((((.(((((((((+))))))))).)))))))))" result="57 °C"
substance="CGACGTGCACGATGTGCTG+CAGCACATTTTGCACGTCG (((((((((..((((((((+))))))))..)))))))))" result="48.5 °C"
substance="CGACGTGCTTGATGTGCTG+CAGCACATGCTGCACGTCG ((((((((...((((((((+))))))))...))))))))" result="48.1 °C"

* * *

- ASSAY: melting temperature; melt of duplexes
- ASSAY CONTEXT: sodium 0.0675 M; strand 1 µM
Entries and their measured Tm follow.
READOUT KIND: Tm (°C)

substance="CGACGTGCAGCATGTGCTG+CAGCACATATCGCACGTCG ((((((((...((((((((+))))))))...))))))))" unit_tag=°C recorded_number=46.6
substance="CGACGTGCATAATGTGCTG+CAGCACATGCAGCACGTCG ((((((((...((((((((+))))))))...))))))))" unit_tag=°C recorded_number=51.4
substance="CGACGTGCTGGATGTGCTG+CAGCACATTGGGCACGTCG ((((((((...((((((((+))))))))...))))))))" unit_tag=°C recorded_number=52
substance="CGACGTGCTGAATGTGCTG+CAGCACATAGCGCACGTCG ((((((((...((((((((+))))))))...))))))))" unit_tag=°C recorded_number=48.3

* * *

- ASSAY: melting temperature; melt of duplexes
- ASSAY CONTEXT: sodium 0.0675 M; strand 1 µM
READOUT KIND: Tm (°C)

substance="CGACGTGCTCCATGTGCTG+CAGCACATTCTGCACGTCG ((((((((...((((((((+))))))))...))))))))" recorded_number=47.2
substance="CGACGTGCGATATGTGCTG+CAGCACATCGAGCACGTCG ((((((((...((((((((+))))))))...))))))))" recorded_number=53.6
substance="CGACGTGCAGAATGTGCTG+CAGCACATATCGCACGTCG ((((((((...((((((((+))))))))...))))))))" recorded_number=50.9
substance="CGACGTGCGCTATGTGCTG+CAGCACATGACGCACGTCG (((((((((..((((((((+))))))))..)))))))))" recorded_number=52.4

* * *

- ASSAY: melting temperature; melt of duplexes
- ASSAY CONTEXT: sodium 0.0675 M; strand 1 µM
# if value of Tm reaches 50 °C, tag Fulfilled; if it stays below, tag Not fulfilled

substance="CGACGTGCAAAATGTGCTG+CAGCACATGTTGCACGTCG ((((((((((.((((((((+)))))))).))))))))))" label_value=Fulfilled
substance="CGACGTGCGCCATGTGCTG+CAGCACATTCGGCACGTCG ((((((((...((((((((+))))))))...))))))))" label_value="Not fulfilled"
substance="CGACGTGCACCATGTGCTG+CAGCACATGGAGCACGTCG ((((((((.((((((((((+)))))))))).))))))))" label_value=Fulfilled
substance="CGACGTGCCATATGTGCTG+CAGCACATAGTGCACGTCG ((((((((..(((((((((+)))))))))..))))))))" label_value="Not fulfilled"
substance="CGACGTGCACTATGTGCTG+CAGCACATCCAGCACGTCG ((((((((...((((((((+))))))))...))))))))" label_value="Not fulfilled"
substance="CGACGTGCGAGATGTGCTG+CAGCACATGAAGCACGTCG ((((((((...((((((((+))))))))...))))))))" label_value=Fulfilled

* * *

- ASSAY: melting temperature; melt of duplexes
- ASSAY CONTEXT: sodium 0.0675 M; strand 1 µM
READOUT KIND: Tm (°C)

substance="CGACGTGCACCATGTGCTG+CAGCACATACGGCACGTCG ((((((((...((((((((+))))))))...))))))))" recorded_number=42.9
substance="CGACGTGCTTTATGTGCTG+CAGCACATTGAGCACGTCG (((((((((..((((((((+))))))))..)))))))))" recorded_number=52
substance="CGACGTGCGTTATGTGCTG+CAGCACATGCCGCACGTCG (((((((((..((((((((+))))))))..)))))))))" recorded_number=53.7
substance="CGACGTGCTATATGTGCTG+CAGCACATTGGGCACGTCG ((((((((...((((((((+))))))))...))))))))" recorded_number=50.5
substance="CGACGTGCTGTATGTGCTG+CAGCACATCGTGCACGTCG ((((((((...((((((((+))))))))...))))))))" recorded_number=46.4
substance="CGACGTGCGCAATGTGCTG+CAGCACATCGCGCACGTCG ((((((((((.((((((((+)))))))).))))))))))" recorded_number=60.3
substance="CGACGTGCCACATGTGCTG+CAGCACATACAGCACGTCG ((((((((...((((((((+))))))))...))))))))" recorded_number=48.6
substance="CGACGTGCTACATGTGCTG+CAGCACATGGAGCACGTCG (((((((((.(((((((((+))))))))).)))))))))" recorded_number=61.7
substance="CGACGTGCCGTATGTGCTG+CAGCACATTTTGCACGTCG ((((((((...((((((((+))))))))...))))))))" recorded_number=47.5
substance="CGACGTGCCGAATGTGCTG+CAGCACATCCCGCACGTCG ((((((((.(.((((((((+)))))))).).))))))))" recorded_number=49.6
substance="CGACGTGCTTAATGTGCTG+CAGCACATCTCGCACGTCG ((((((((...((((((((+))))))))...))))))))" recorded_number=47.8
substance="CGACGTGCGGGATGTGCTG+CAGCACATAACGCACGTCG (((((((((..((((((((+))))))))..)))))))))" recorded_number=59.4
substance="CGACGTGCCTCATGTGCTG+CAGCACATTTTGCACGTCG ((((((((...((((((((+))))))))...))))))))" recorded_number=46.6
substance="CGACGTGCTTCATGTGCTG+CAGCACATAGTGCACGTCG ((((((((...((((((((+))))))))...))))))))" recorded_number=44.4
substance="CGACGTGCTTCATGTGCTG+CAGCACATGATGCACGTCG ((((((((.((((((((((+)))))))))).))))))))" recorded_number=58.8
substance="CGACGTGCTCCATGTGCTG+CAGCACATTAAGCACGTCG (((((((((..((((((((+))))))))..)))))))))" recorded_number=49.4
substance="CGACGTGCTGCATGTGCTG+CAGCACATTCGGCACGTCG ((((((((.(.((((((((+)))))))).).))))))))" recorded_number=53.2
substance="CGACGTGCTTAATGTGCTG+CAGCACATCCTGCACGTCG ((((((((...((((((((+))))))))...))))))))" recorded_number=48.4
substance="CGACGTGCCAAATGTGCTG+CAGCACATCAGGCACGTCG (((((((((..((((((((+))))))))..)))))))))" recorded_number=54.2
substance="CGACGTGCGCCATGTGCTG+CAGCACATAACGCACGTCG (((((((((..((((((((+))))))))..)))))))))" recorded_number=52.4
substance="CGACGTGCACGATGTGCTG+CAGCACATGGCGCACGTCG ((((((((.(.((((((((+)))))))).).))))))))" recorded_number=50.2
substance="CGACGTGCGGTATGTGCTG+CAGCACATGGTGCACGTCG ((((((((...((((((((+))))))))...))))))))" recorded_number=51.5
substance="CGACGTGCGGCATGTGCTG+CAGCACATCCTGCACGTCG ((((((((.(.((((((((+)))))))).).))))))))" recorded_number=53.4
substance="CGACGTGCTTCATGTGCTG+CAGCACATAAGGCACGTCG ((((((((.(.((((((((+)))))))).).))))))))" recorded_number=50.6
substance="CGACGTGCCAAATGTGCTG+CAGCACATTGGGCACGTCG (((((((((.(((((((((+))))))))).)))))))))" recorded_number=59.5
substance="CGACGTGCTAAATGTGCTG+CAGCACATCCTGCACGTCG ((((((((...((((((((+))))))))...))))))))" recorded_number=49
substance="CGACGTGCGAGATGTGCTG+CAGCACATGCGGCACGTCG ((((((((...((((((((+))))))))...))))))))" recorded_number=50.4
substance="CGACGTGCGTAATGTGCTG+CAGCACATTCTGCACGTCG ((((((((..(((((((((+)))))))))..))))))))" recorded_number=53.4
substance="CGACGTGCATGATGTGCTG+CAGCACATACAGCACGTCG ((((((((...((((((((+))))))))...))))))))" recorded_number=49.5
